- Target under test: Cav1.2/β3/α2δ (Homo sapiens, UniProt Q13936)
- Construct: expressed in transfected cells; host or cells: Xenopus laevis oocytes (cRNA injection, Cav1.2:β3:α2δ 2:1:1 by weight)
- Sequence (Q13936 1-2138 isoform Q13936-20): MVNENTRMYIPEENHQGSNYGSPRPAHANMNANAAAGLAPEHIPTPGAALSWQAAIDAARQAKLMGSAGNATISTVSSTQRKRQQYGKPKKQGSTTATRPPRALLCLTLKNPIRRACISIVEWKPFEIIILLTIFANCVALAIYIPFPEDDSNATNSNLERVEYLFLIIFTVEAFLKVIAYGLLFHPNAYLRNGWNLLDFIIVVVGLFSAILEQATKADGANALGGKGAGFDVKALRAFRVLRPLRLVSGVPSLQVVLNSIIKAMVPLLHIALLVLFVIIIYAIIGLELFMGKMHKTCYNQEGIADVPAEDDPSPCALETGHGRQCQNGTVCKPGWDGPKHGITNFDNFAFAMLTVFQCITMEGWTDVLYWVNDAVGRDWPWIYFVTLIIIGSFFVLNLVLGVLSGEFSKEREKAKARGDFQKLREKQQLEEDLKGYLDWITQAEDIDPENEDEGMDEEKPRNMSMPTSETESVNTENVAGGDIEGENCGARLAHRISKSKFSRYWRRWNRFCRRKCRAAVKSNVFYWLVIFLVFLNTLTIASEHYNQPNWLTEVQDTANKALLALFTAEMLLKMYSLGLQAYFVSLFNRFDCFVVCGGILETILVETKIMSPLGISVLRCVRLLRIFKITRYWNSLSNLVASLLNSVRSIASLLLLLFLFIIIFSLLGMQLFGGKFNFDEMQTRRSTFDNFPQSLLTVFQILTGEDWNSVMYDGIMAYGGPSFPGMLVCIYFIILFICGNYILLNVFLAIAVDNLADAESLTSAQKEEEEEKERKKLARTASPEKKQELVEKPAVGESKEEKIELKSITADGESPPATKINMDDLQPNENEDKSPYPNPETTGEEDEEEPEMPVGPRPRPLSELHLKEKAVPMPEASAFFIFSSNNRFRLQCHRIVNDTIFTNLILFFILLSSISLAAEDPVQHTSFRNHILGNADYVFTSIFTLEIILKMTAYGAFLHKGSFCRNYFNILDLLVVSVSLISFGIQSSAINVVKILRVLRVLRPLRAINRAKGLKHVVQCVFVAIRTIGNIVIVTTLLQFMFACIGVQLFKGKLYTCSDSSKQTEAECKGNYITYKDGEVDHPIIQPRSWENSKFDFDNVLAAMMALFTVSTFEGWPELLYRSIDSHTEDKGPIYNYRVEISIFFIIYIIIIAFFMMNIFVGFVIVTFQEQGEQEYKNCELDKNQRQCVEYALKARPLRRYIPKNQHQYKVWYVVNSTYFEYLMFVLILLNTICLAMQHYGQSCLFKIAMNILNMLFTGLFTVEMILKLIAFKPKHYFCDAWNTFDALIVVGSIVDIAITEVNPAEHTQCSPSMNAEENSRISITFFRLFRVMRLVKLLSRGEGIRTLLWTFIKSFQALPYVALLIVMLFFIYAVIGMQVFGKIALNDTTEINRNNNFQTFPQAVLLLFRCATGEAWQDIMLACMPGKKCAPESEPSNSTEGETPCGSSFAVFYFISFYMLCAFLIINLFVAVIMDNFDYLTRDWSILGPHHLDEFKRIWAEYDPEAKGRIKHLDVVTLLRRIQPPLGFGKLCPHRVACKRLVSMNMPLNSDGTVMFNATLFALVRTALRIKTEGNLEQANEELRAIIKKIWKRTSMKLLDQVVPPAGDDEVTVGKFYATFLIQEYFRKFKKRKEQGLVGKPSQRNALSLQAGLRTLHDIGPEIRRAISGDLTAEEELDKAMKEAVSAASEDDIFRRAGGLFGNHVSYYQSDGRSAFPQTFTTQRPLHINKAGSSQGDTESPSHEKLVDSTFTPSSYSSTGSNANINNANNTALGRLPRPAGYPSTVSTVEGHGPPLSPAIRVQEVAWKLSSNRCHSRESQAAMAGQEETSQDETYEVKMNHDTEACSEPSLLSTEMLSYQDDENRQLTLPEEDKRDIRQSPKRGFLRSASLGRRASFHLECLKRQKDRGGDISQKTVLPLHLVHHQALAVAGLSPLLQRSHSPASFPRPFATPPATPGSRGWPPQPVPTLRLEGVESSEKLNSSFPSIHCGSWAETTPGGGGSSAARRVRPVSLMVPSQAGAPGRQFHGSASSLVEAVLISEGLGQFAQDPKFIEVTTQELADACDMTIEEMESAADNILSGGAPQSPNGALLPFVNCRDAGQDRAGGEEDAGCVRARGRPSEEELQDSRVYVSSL
- Sequence (P54286 whole entry partner): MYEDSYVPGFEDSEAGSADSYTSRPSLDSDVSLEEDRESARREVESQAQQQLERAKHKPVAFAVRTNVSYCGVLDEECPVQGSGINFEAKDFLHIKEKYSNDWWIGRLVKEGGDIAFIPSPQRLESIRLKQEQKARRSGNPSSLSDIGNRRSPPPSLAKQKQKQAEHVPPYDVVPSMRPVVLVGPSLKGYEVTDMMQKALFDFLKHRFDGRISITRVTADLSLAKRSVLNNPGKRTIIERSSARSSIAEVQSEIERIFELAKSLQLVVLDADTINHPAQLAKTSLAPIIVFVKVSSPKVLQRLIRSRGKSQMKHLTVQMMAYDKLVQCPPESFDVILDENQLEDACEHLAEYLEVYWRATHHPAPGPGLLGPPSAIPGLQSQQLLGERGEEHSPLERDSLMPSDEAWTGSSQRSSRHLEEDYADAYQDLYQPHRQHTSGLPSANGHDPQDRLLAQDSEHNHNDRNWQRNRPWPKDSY
- Sequence (P13806 27-960 partner): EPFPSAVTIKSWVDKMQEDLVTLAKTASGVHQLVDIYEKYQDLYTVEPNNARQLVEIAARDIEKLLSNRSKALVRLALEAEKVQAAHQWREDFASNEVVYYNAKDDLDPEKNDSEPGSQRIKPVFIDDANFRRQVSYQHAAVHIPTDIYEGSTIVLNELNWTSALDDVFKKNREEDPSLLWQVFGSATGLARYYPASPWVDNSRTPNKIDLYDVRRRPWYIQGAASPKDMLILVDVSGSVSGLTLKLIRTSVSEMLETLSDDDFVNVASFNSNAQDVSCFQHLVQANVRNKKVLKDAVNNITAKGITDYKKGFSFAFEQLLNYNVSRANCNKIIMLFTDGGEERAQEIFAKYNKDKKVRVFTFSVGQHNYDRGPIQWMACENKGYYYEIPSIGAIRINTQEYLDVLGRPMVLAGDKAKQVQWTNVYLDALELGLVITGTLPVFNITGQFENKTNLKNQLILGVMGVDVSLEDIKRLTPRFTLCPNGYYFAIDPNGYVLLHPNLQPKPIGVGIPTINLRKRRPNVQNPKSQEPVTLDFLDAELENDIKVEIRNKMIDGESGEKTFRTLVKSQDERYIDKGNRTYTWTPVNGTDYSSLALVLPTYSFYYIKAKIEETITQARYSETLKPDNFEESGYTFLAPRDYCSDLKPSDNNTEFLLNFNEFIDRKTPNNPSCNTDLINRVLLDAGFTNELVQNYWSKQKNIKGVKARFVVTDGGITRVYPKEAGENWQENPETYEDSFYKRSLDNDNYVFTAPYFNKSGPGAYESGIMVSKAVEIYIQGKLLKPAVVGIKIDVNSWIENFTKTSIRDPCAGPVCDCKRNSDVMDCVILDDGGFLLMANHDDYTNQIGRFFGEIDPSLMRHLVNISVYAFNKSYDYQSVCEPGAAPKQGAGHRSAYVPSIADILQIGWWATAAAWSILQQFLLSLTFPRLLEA
- Sequence (P13806 961-1106 partner): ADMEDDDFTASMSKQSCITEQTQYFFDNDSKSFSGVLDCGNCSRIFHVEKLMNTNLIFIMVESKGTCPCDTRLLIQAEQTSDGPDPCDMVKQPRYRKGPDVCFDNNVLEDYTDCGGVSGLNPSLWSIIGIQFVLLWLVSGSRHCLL
- Method: Two-electrode voltage clamp of Cav1.2/β3/α2δ expressed in Xenopus oocytes (Ba2+ as charge carrier)
- Type: cell-based
- Details: 2 μM; relative current at 0 mV
Measured metric: ICa I/I0

CCCCC/C=C\C/C=C\C/C=C\C/C=C\CCCC(=O)NCCS(=O)(=O)O	0.9
CC/C=C\C/C=C\C/C=C\C/C=C\C/C=C\C/C=C\CCC(=O)NCCS(=O)(=O)O	1.0
CCCCC/C=C\C/C=C\CC/C=C\CCCC(=O)NCCS(=O)(=O)O	0.8

Where do these numbers come from? They come from paper PMC7159882.
